System: VEGF protein expression level in MCF-7 cell line
Test: VEGF ELISA in MCF-7 cell culture supernatant
Format: cell-based, human
Parameters: concentration or dose not given beside the values
Details: MCF-7, ELISA, 24 h, compared to control
quantity_measured: VEGF 24 h % Inhibition (%)
# value in %; strip the unit string

Sample `Cc1ccc(N=Nc2c(N)nn3c(N)c(N=Nc4ccc(S(=O)(=O)N=C(N)N)cc4)c(O)nc23)cc1` ; VEGF 24 h % Inhibition observed: 40

Sample `Cc1ccc(N=Nc2c(N)n[nH]c2N)cc1` ; VEGF 24 h % Inhibition observed: 20

Sample `Cc1ccc(N=Nc2c(N)nn3c(N)c(N=Nc4ccc(S(=O)(=O)N=C(N)N)cc4)c(N)nc23)cc1` ; VEGF 24 h % Inhibition observed: 50

Sample CO[C@H]1C[C@@H]2CC[C@@H](C)[C@@](O)(O2)C(=O)C(=O)N2CCCC[C@H]2C(=O)O[C@H]([C@H](C)C[C@@H]2CC[C@@H](OCCO)[C@H](OC)C2)CC(=O)[C@H](C)/C=C(\C)[C@@H](O)[C@@H](OC)C(=O)[C@H](C)C[C@H](C)/C=C/C=C/C=C/1C [Everolimus, reference compound] ; VEGF 24 h % Inhibition observed: 50

Sample `Cc1ccc(N=Nc2c(N)nn3c(C)c(N=Nc4cccc([N+](=O)[O-])c4)c(=O)[nH]c23)cc1` ; VEGF 24 h % Inhibition observed: 40

* * *

Provide the reported melting point of each item.

Sample `Cc1ccc(N=Nc2c(N)nn3c(C)c(N=Nc4cccc([N+](=O)[O-])c4)c(=O)[nH]c23)cc1` ; melting point observed: 228 to 230 °C

Sample `Cc1ccc(N=Nc2c(N)nn3c(C)c(N=Nc4ccc(S(=O)(=O)N=C(N)N)cc4)c(C)nc23)cc1` ; melting point observed: 250 to 252 °C

Sample `COc1ccc(-c2nc3c(N=Nc4ccc(C)cc4)c(N)nn3c(N)c2C#N)cc1` ; melting point observed: 230 to 232 °C

Sample `Cc1ccc(N=Nc2c(N)nn3c(C)c(N=Nc4cccc([N+](=O)[O-])c4)c(C)nc23)cc1` ; melting point observed: 256 to 258 °C

Sample `Cc1ccc(N=Nc2c(N)nn3c(N)c(N=Nc4cccc([N+](=O)[O-])c4)c(O)nc23)cc1` ; melting point observed: 234 to 236 °C

Sample `Cc1ccc(N=Nc2c(N)nn3c(N)c(N=Nc4ccc(S(=O)(=O)N=C(N)N)cc4)c(N)nc23)cc1` ; melting point observed: 264 to 266 °C

Sample `Cc1ccc(N=Nc2c(N)nn3c(C)c(N=Nc4ccc(S(=O)(=O)N=C(N)N)cc4)c(=O)[nH]c23)cc1` ; melting point observed: 272 to 274 °C

Sample `Cc1ccc(N=Nc2c(N)nn3c2NC(=O)C(=NNc2ccc(S(=O)(=O)N=C(N)N)cc2)C3=O)cc1` ; melting point observed: 278 to 280 °C

Sample `Cc1ccc(N=Nc2c(N)nn3c(N)c(N=Nc4ccc(S(=O)(=O)N=C(N)N)cc4)c(O)nc23)cc1` ; melting point observed: 268 to 270 °C

* * *

Test system: VEGF protein expression level in HepG2 cell line
Experiment: VEGF ELISA in HepG2 cell culture supernatant
Type: cell-based, human
Parameters: concentration or dose not given beside the values
Details: 24 h, compared to control
Experimental: Total protein was assayed using the method described by Bradford. The VEGF ELISA Assay Kit (VEGF) and ELISA Kit, (#VGF31-[…]) were purchased from (Eagle Biosciences CO., LTD, Amherst, NH, USA). The kit is a sandwich enzyme immunoassay for the in vitro quantitative determination of VEGF concentrations in cell culture supernates, serum and plasma according to the manufacturer's instructions.
The label depends only on VEGF 24 h % Inhibition: 1.0 if it is at least 50%, 0.0 if it is smaller.

Q: Item CNC(=O)c1cc(Oc2ccc(NC(=O)Nc3ccc(Cl)c(C(F)(F)F)c3)c(F)c2)ccn1 [Regorafenib, reference compound] with VEGF 24 h % Inhibition of 50% or above?
Result: 1.0

Q: Item `Cc1ccc(N=Nc2c(N)nn3c(C)c(N=Nc4cccc([N+](=O)[O-])c4)c(=O)[nH]c23)cc1` with VEGF 24 h % Inhibition of 50% or above?
Result: 0.0

Q: Item `Cc1ccc(N=Nc2c(N)n[nH]c2N)cc1` with VEGF 24 h % Inhibition of 50% or above?
Result: 0.0

Q: Item `Cc1ccc(N=Nc2c(N)nn3c(N)c(N=Nc4ccc(S(=O)(=O)N=C(N)N)cc4)c(O)nc23)cc1` with VEGF 24 h % Inhibition of 50% or above?
Result: 0.0

* * *

Tested on: VEGFR-2 protein expression level in HepG2 cell line
Test: Human VEGF receptor-2 ELISA in HepG2
Format: cell-based
Parameters: concentration or dose not given beside the values
Settings: 24 h, compared to control
quantity_measured: VEGFR-2 24 h % Inhibition (%)
# value in %; strip the unit string

Sample `Cc1ccc(N=Nc2c(N)nn3c(N)c(N=Nc4ccc(S(=O)(=O)N=C(N)N)cc4)c(O)nc23)cc1` ; VEGFR-2 24 h % Inhibition observed: 47.4

Sample `Cc1ccc(N=Nc2c(N)nn3c(N)c(N=Nc4ccc(S(=O)(=O)N=C(N)N)cc4)c(N)nc23)cc1` ; VEGFR-2 24 h % Inhibition observed: 69.7

Sample `Cc1ccc(N=Nc2c(N)n[nH]c2N)cc1` ; VEGFR-2 24 h % Inhibition observed: 52.6

Sample CNC(=O)c1cc(Oc2ccc(NC(=O)Nc3ccc(Cl)c(C(F)(F)F)c3)c(F)c2)ccn1 [Regorafenib, reference compound] ; VEGFR-2 24 h % Inhibition observed: 62

Sample `Cc1ccc(N=Nc2c(N)nn3c(C)c(N=Nc4cccc([N+](=O)[O-])c4)c(=O)[nH]c23)cc1` ; VEGFR-2 24 h % Inhibition observed: 42

* * *

Tested on: VEGF protein expression level in MCF-7 cell line
Assay: VEGF ELISA in MCF-7 cell culture supernatant
Assay type: cell-based, human
Set-up: concentration or dose not given beside the values
Conditions: MCF-7, ELISA, 72 h, compared to control
quantity_measured: VEGF 72 h % Inhibition (%)
# value in %; strip the unit string

Sample Cc1ccc(N=Nc2c(N)nn3c(C)c(N=Nc4cccc([N+](=O)[O-])c4)c(=O)[nH]c23)cc1 [Compound 4b] ; VEGF 72 h % Inhibition observed: 50

Sample Cc1ccc(N=Nc2c(N)nn3c(N)c(N=Nc4ccc(S(=O)(=O)N=C(N)N)cc4)c(O)nc23)cc1 [Compound 2a] ; VEGF 72 h % Inhibition observed: 50

Sample Cc1ccc(N=Nc2c(N)nn3c(N)c(N=Nc4ccc(S(=O)(=O)N=C(N)N)cc4)c(N)nc23)cc1 [Compound 7] ; VEGF 72 h % Inhibition observed: 62.5

Sample Cc1ccc(N=Nc2c(N)n[nH]c2N)cc1 [Compound 1] ; VEGF 72 h % Inhibition observed: 50

Sample CO[C@H]1C[C@@H]2CC[C@@H](C)[C@@](O)(O2)C(=O)C(=O)N2CCCC[C@H]2C(=O)O[C@H]([C@H](C)C[C@@H]2CC[C@@H](OCCO)[C@H](OC)C2)CC(=O)[C@H](C)/C=C(\C)[C@@H](O)[C@@H](OC)C(=O)[C@H](C)C[C@H](C)/C=C/C=C/C=C/1C [Everolimus, reference compound] ; VEGF 72 h % Inhibition observed: 62.5

* * *

Tested on: VEGF protein expression level in HepG2 cell line
Experiment: VEGF ELISA in HepG2 cell culture supernatant
Type: cell-based, human
Set-up: concentration or dose not given beside the values
Details: 72 h, compared to control
Description: Total protein was assayed using the method described by Bradford. The VEGF ELISA Assay Kit (VEGF) and ELISA Kit, (#VGF31-[…]) were purchased from (Eagle Biosciences CO., LTD, Amherst, NH, USA). The kit is a sandwich enzyme immunoassay for the in vitro quantitative determination of VEGF concentrations in cell culture supernates, serum and plasma according to the manufacturer's instructions.
quantity_measured: VEGF 72 h % Inhibition (%)
# value in %; strip the unit string

Sample `Cc1ccc(N=Nc2c(N)nn3c(C)c(N=Nc4cccc([N+](=O)[O-])c4)c(=O)[nH]c23)cc1` ; VEGF 72 h % Inhibition observed: 41.7

Sample `Cc1ccc(N=Nc2c(N)nn3c(N)c(N=Nc4ccc(S(=O)(=O)N=C(N)N)cc4)c(O)nc23)cc1` ; VEGF 72 h % Inhibition observed: 33.3

Sample CNC(=O)c1cc(Oc2ccc(NC(=O)Nc3ccc(Cl)c(C(F)(F)F)c3)c(F)c2)ccn1 [Regorafenib, reference compound] ; VEGF 72 h % Inhibition observed: 75.4

Sample `Cc1ccc(N=Nc2c(N)n[nH]c2N)cc1` ; VEGF 72 h % Inhibition observed: 33.3

Sample `Cc1ccc(N=Nc2c(N)nn3c(N)c(N=Nc4ccc(S(=O)(=O)N=C(N)N)cc4)c(N)nc23)cc1` ; VEGF 72 h % Inhibition observed: 70.3
